# Measured target: LZK (Homo sapiens, UniProt O43283)
# Sequence (O43283 whole entry): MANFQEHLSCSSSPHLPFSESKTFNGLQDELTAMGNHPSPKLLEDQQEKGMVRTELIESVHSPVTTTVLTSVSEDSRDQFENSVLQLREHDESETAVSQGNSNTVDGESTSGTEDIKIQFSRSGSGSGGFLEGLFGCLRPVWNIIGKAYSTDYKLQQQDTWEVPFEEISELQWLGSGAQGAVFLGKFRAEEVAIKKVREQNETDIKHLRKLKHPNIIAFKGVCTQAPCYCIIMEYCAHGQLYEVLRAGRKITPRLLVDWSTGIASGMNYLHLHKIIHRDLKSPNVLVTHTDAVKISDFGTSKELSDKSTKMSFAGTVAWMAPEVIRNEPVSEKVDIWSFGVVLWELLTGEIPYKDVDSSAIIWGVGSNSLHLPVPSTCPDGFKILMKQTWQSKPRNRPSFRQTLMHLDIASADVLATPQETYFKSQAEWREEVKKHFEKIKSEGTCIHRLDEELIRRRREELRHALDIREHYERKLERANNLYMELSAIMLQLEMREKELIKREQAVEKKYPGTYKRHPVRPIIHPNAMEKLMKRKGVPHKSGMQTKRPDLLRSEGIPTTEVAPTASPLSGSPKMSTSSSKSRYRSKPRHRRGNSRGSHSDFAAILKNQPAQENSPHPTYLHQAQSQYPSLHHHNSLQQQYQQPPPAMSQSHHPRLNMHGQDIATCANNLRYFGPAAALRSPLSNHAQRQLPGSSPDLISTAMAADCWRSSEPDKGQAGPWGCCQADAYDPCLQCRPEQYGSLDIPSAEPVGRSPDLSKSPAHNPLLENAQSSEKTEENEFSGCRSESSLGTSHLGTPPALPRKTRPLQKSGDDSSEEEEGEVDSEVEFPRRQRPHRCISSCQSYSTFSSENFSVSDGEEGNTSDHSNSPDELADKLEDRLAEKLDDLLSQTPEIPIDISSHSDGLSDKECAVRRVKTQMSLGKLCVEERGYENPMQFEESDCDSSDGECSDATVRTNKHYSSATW
# Method: LZK and DLK Inhibition Assay (competition binding to liganded affinity beads, qPCR readout): LZK
# Applied conditions: kinase produced in HEK-293 cells, 11-point 3-fold dilution series
# Protocol: The kinases were produced in HEK-293 cells and subsequently tagged with DNA for qPCR detection. Streptavidin-coated magnetic beads were treated with biotinylated small molecule ligands for 30 minutes at room temperature to generate affinity resins for the kinase assays. […] Kds were determined using an 11-point 3-fold compound dilution series with three DMSO control points. […] The kinase concentration in the eluates was measured by qPCR.
Where a name gives a salt, the structure may show the parent alone.
Below: a set of entries, each annotated with reported IC50.

Short answer for Fc1c(N2CC3CC2CN3)cc(Nc2ccc(C(F)F)cn2)nc1N1CCOCC1 (stereo not shown) [Compound 4, di-TFA salt] : IC50 was 1000 to 10000 nM

Short answer for Fc1c(C2CCN(CC3CC3)CC2)cc(N2CC3CC3C2)nc1Nc1cnc(C2CC2)cn1 (stereo not shown) : IC50 was 100 to 1000 nM

Short answer for Nc1c(C2CCN(CC3CC3)CC2)cc(Nc2cnc(C3CC3)cn2)nc1N1CC2CC2C1 (stereo not shown) [Compound 9, 2,2,2-trifluoroacetate] : IC50 was ≤ 100 nM

Short answer for Fc1c(N2CCNCC2)cc(Nc2ccc(C(F)F)cn2)nc1N1CCOCC1 [Compound 3, di-TFA salt] : IC50 was 100 to 1000 nM

Short answer for N#Cc1c(C2CCN(CC3CC3)CC2)cc(Nc2cnc(C3CC3)cn2)nc1N1CC2CC2C1 (stereo not shown) [Compound 8, formic acid salt] : IC50 was ≤ 100 nM

Short answer for Fc1c(C2CCN(CC3CC3)CC2)cc(Nc2cnc(C3CC3)cn2)nc1N1CC2CC2C1 (stereo not shown) : IC50 was ≤ 100 nM

Short answer for Fc1c(N2CCNCC2)cc(Nc2cnc(C3CC3)cn2)nc1N1CCOCC1 : IC50 was ≤ 100 nM

Short answer for Fc1c(N2CCNCC2)cc(Nc2ccc(C(F)(F)F)cn2)nc1N1CCOCC1 : IC50 was 100 to 1000 nM

Short answer for Clc1c(C2CCN(CC3CC3)CC2)cc(Nc2cnc(C3CC3)cn2)nc1N1CC2CC2C1 (stereo not shown) [Compound 7, TFA salt] : IC50 was 1000 to 10000 nM

Short answer for Fc1c(N2CC3CC2CN3)cc(Nc2ccc(C(F)(F)F)cn2)nc1N1CCOCC1 (stereo not shown) : IC50 was 1000 to 10000 nM

---

Below: a set of entries, each annotated with reported IC50.
# Measured target: DLK (Homo sapiens, UniProt Q12852)
# Sequence (Q12852 1-859): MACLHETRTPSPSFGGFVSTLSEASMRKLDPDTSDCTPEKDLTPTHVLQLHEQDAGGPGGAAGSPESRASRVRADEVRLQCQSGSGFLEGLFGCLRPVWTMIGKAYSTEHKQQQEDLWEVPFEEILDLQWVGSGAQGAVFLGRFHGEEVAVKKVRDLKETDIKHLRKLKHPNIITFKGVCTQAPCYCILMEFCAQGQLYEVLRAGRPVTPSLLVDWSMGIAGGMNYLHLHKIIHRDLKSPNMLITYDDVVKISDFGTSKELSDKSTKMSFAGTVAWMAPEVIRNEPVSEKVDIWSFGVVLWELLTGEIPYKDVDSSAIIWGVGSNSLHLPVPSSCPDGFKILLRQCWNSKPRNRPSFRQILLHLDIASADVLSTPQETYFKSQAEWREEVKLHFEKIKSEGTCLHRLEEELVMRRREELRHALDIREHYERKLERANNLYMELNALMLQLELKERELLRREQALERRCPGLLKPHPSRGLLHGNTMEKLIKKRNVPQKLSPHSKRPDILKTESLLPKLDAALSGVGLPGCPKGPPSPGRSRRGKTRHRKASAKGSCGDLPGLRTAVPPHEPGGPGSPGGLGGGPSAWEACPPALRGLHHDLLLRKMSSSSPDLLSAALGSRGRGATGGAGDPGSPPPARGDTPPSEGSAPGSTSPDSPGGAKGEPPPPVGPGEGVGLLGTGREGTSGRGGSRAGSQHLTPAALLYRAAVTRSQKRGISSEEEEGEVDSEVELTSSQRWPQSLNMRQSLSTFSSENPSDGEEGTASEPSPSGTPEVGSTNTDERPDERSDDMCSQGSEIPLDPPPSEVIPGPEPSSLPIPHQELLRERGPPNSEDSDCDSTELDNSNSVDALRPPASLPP
# Method: LZK and DLK Inhibition Assay (competition binding to liganded affinity beads, qPCR readout): DLK
# Applied conditions: kinase produced in HEK-293 cells, 11-point 3-fold dilution series
Structures can show the parent of a compound that is named as a salt.

See these solved cases before continuing.
Tested system DLK (Homo sapiens, UniProt Q12852); IC50 recorded for Nc1c(C2CCN(CC3CC3)CC2)cc(Nc2cnc(C3CC3)cn2)nc1N1CC2CC2C1 (stereo not drawn) [Compound 9, 2,2,2-trifluoroacetate] was ≤ 100 nM

Tested system DLK (Homo sapiens, UniProt Q12852); IC50 recorded for Fc1c(N2CC3CC2CN3)cc(Nc2ccc(C(F)F)cn2)nc1N1CCOCC1 (stereo not drawn) [Compound 4, di-TFA salt] was 1000 to 10000 nM

Tested system DLK (Homo sapiens, UniProt Q12852); IC50 recorded for Fc1c(N2CC3CC2CN3)cc(Nc2ccc(C(F)(F)F)cn2)nc1N1CCOCC1 (stereo not drawn) was 1000 to 10000 nM

Tested system DLK (Homo sapiens, UniProt Q12852); IC50 recorded for Clc1c(C2CCN(CC3CC3)CC2)cc(Nc2cnc(C3CC3)cn2)nc1N1CC2CC2C1 (stereo not drawn) [Compound 7, TFA salt] was 1000 to 10000 nM

Tested system DLK (Homo sapiens, UniProt Q12852); IC50 recorded for Fc1c(C2CCN(CC3CC3)CC2)cc(N2CC3CC3C2)nc1Nc1cnc(C2CC2)cn1 (stereo not drawn) was ≤ 100 nM

Tested system DLK (Homo sapiens, UniProt Q12852); IC50 recorded for Fc1c(N2CCNCC2)cc(Nc2ccc(C(F)(F)F)cn2)nc1N1CCOCC1 was 1000 to 10000 nM

Tested system DLK (Homo sapiens, UniProt Q12852); IC50 recorded for Fc1c(N2CCNCC2)cc(Nc2ccc(C(F)F)cn2)nc1N1CCOCC1 [Compound 3, di-TFA salt] was 100 to 1000 nM

Tested system DLK (Homo sapiens, UniProt Q12852); IC50 recorded for N#Cc1c(C2CCN(CC3CC3)CC2)cc(Nc2cnc(C3CC3)cn2)nc1N1CC2CC2C1 (stereo not drawn) [Compound 8, formic acid salt] was ≤ 100 nM

Others:
Tested system DLK (Homo sapiens, UniProt Q12852); IC50 recorded for Fc1c(C2CCN(CC3CC3)CC2)cc(Nc2cnc(C3CC3)cn2)nc1N1CC2CC2C1 (stereo not drawn) was ≤ 100 nM
